Biological target: epithelial sodium channel (ENaC) (Homo sapiens, UniProt P37088+P51168+P51170)
Sequence (P37088 whole entry): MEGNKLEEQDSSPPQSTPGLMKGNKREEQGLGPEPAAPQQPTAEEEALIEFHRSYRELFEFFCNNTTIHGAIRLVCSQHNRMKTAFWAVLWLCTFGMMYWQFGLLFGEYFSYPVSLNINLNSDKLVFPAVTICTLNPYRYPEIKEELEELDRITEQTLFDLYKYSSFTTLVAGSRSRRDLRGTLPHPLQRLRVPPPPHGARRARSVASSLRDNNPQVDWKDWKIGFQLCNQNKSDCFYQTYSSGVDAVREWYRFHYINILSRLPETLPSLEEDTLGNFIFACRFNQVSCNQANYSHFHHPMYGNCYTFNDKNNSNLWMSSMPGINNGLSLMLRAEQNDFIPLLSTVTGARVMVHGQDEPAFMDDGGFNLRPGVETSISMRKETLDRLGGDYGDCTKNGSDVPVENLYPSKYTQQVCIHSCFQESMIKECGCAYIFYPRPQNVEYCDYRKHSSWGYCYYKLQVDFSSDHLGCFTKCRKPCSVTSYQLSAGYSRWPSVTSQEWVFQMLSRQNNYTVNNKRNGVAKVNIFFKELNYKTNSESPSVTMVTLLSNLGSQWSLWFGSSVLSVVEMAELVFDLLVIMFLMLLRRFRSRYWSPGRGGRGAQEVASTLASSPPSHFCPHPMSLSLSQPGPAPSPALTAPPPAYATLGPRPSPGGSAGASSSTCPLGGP
Sequence (P51168 whole entry): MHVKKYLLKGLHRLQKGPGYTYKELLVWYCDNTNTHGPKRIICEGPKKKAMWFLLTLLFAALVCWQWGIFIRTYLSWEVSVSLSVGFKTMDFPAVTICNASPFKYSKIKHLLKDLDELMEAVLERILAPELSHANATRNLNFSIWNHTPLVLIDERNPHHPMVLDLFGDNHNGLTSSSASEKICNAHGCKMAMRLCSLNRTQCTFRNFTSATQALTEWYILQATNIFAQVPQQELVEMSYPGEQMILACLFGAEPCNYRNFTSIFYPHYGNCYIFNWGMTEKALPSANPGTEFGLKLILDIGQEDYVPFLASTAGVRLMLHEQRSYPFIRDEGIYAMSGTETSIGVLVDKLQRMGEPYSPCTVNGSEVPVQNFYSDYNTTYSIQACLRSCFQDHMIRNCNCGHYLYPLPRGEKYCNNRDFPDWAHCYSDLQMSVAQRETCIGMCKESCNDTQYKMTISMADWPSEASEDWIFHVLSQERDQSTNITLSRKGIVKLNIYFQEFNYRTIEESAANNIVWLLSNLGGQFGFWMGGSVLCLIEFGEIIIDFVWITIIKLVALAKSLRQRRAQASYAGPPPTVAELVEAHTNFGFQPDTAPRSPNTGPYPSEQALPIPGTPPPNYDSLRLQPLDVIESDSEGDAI
Sequence (P51170 whole entry): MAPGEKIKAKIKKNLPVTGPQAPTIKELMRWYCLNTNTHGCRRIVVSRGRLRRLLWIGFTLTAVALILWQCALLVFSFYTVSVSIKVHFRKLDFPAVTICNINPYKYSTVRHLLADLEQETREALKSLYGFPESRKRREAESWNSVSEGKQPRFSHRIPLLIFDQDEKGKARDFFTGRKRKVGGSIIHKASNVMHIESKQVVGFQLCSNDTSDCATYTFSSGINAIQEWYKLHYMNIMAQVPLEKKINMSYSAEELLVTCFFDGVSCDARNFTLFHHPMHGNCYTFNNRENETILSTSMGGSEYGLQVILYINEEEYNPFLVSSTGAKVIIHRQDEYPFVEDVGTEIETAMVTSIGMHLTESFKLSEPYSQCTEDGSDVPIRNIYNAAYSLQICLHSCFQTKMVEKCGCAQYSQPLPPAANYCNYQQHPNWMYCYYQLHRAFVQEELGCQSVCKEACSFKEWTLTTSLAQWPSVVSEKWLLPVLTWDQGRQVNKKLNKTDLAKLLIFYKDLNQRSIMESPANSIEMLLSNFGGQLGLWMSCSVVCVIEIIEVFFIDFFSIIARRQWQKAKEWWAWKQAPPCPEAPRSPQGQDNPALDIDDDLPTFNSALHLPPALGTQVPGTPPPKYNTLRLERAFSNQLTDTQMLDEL
Test: Short circuit current (ISC) measurements in Human Bronchial Epithelial cells
Settings: HBECs at air-liquid interface, Ussing chamber, apical addition; read-out: IC50 (inhibition of the amiloride-sensitive ISC)
Structures can show the parent of a compound that is named as a salt.
observed-property: IC50 (nM)

N=C(NCCCCCCNS(=O)(=O)c1cccc2ccccc12)NC(=O)c1nc(Cl)c(N)nc1N [Example 3] | 16.4
N=C(NCCCC(=O)N(Cc1ccccc1)[C@H]1CC2CC[C@H](C1)N2Cc1ccccc1)NC(=O)c1nc(Cl)c(N)nc1N [Example 12] | 65.9

A: COC(=O)[C@H](CCCCNC(=N)NC(=O)c1nc(Cl)c(N)nc1N)NS(=O)(=O)c1ccc(C)cc1 [Example 17, trifluoroacetate]
B: N=C(NCCCCNC(=O)Cc1ccccc1)NC(=O)c1nc(Cl)c(N)nc1N [Example 25]
API: POST /compare with A and B ; response names the item with higher IC50. Refer to your chosen entry by its label in the reply.
A
(A: 33 nM, B: 18 nM)
